What melting point was measured for each of the following?

[
  {
    "COMPOUND": "COC(=O)Cn1c(=O)n(C)c(=O)n(-c2cc(Oc3c(Cl)ccc(C)c3Cl)ccc2[N+](=O)[O-])c1=O",
    "melting point": "200 to 202 °C"
  },
  {
    "COMPOUND": "CN1C(=O)C2(COc3cc4c(cc32)OCCO4)c2c(-c3cc(O)[nH]n3)cccc21 (stereo not given)",
    "melting point": "> 250 °C"
  },
  {
    "COMPOUND": "CC(C)P1(=O)c2ccccc2CN1C(C)(C)C (stereo not given)",
    "melting point": "67 to 70 °C"
  },
  {
    "COMPOUND": "O=C1C(=Cc2ccccc2)c2ccccc2N1C1=NCCS1",
    "melting point": "120 to 125 °C"
  },
  {
    "COMPOUND": "CS(=O)(=O)c1ccc(-c2scnc2-c2ccc(F)cc2)cc1",
    "melting point": "138 to 139 °C"
  }
]

I would be grateful if you could provide melting point for each of the following entries.
1. O=C(NCCc1ccc(O)cc1)c1cccnc1
2. O=C(CC(=O)c1ccccc1)Nc1cc(Cl)c(Cl)cc1[N+](=O)[O-]
3. CC(C)OC(=O)Nc1ccc(NC(=O)CBr)c([N+](=O)[O-])c1
4. CCOC(=O)c1cccc(O)c1C
5. O=C=Nc1ccc(OCCOc2ccc(N=C=O)cc2)cc1

["179 to 181 °C", "177 to 179 °C", "195 to 197 °C", "58 to 60 °C", "95 to 97 °C"]
